src = patent US11166959B2

Target: IRAK4 (Homo sapiens)
Sequence (Q9NWZ3 160-460): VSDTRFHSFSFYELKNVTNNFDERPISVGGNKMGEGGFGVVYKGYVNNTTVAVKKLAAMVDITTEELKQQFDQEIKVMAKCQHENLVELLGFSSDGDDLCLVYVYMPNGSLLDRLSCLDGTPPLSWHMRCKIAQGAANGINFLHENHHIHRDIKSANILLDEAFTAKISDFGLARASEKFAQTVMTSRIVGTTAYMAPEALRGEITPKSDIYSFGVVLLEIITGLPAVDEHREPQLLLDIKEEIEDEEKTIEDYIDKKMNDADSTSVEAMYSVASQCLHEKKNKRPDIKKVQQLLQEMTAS
In this section, each of the compounds is paired with its reported IC50.
PARAMETER: IC50

COMPOUND | PARAMETER | ASSAY_VALUE
CC1(C)OC(=O)c2ccc(Nc3cc(N[C@H](CO)C4CC4)c(-c4nc(C5CC5)no4)cn3)cc21 | IC50 | 250 to 1000 nM
CC1(C)OC(=O)c2ccc(Nc3cc(NCc4cccnc4)c(-c4nc(C56CCN(CC5)CC6)no4)cn3)nc21 | IC50 | 250 to 1000 nM
CC1(C)OC(=O)c2ccc(Nc3ncc(C(=O)NC4CCN(Cc5ccccc5)C4)c(N[C@H](CO)c4ccccc4)n3)cc21 (stereo partly shown) | IC50 | 250 to 1000 nM
CC(C)(CN)CNc1nc(Nc2ccc3c(c2)C(C)(C)OC3=O)ncc1-c1nc(C2CCOCC2)no1 | IC50 | 250 to 1000 nM
CC1(C)OC(=O)c2ccc(Nc3cc(N[C@H](CO)c4ccccc4)c(-c4nc(C56CCN(CC5)CC6)no4)cn3)nc21 | IC50 | 50 to 250 nM
CC1(C)OC(=O)c2ccc(Nc3cc(N[C@H](CO)c4ccccc4)c(-c4nc(C5CN6CCC5(F)CC6)no4)cn3)nc21 (stereo partly shown) | IC50 | 50 to 250 nM
CC1(C)OC(=O)c2ccc(Nc3ncc(C(=O)NCC4CN5CCC4CC5)c(N[C@H](CO)c4ccccc4)n3)cc21 (stereo partly shown) | IC50 | 250 to 1000 nM
